- Target system: CYP2C9 (Homo sapiens, UniProt P11712)
- Sequence (P11712 whole entry): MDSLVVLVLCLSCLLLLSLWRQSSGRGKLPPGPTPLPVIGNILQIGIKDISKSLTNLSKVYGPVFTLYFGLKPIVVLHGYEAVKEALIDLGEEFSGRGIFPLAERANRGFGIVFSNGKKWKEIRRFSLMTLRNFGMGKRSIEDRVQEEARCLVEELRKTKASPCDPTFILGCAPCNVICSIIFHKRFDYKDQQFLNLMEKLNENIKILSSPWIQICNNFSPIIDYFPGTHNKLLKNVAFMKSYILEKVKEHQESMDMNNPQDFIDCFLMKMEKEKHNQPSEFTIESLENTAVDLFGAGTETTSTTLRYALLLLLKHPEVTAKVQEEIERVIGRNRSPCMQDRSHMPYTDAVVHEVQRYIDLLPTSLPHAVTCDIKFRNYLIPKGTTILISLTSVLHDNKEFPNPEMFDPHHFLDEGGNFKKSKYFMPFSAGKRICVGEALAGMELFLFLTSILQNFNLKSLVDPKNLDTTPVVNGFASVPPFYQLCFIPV
- Method notes: Inhibition of human CYP2C9 using tolubutamide as substrate at 10 uM by cocktail inhibition assay
- Assay type: ADME
- Details: probe tolubutamide
Result type: inhibition at 10 µM (%)
The response must be a number in % with no trailing unit.

Problem: Tell me measured inhibition at 10 µM for COc1ccc2c(c1)CC(C(=O)Nc1cc(F)c(-c3cn[nH]c3)c(F)c1)CO2 (stereo unspecified) please.
Solution: 63

* * *

- Target system: UniProtKB P08684
- Sequence (P08684 whole entry): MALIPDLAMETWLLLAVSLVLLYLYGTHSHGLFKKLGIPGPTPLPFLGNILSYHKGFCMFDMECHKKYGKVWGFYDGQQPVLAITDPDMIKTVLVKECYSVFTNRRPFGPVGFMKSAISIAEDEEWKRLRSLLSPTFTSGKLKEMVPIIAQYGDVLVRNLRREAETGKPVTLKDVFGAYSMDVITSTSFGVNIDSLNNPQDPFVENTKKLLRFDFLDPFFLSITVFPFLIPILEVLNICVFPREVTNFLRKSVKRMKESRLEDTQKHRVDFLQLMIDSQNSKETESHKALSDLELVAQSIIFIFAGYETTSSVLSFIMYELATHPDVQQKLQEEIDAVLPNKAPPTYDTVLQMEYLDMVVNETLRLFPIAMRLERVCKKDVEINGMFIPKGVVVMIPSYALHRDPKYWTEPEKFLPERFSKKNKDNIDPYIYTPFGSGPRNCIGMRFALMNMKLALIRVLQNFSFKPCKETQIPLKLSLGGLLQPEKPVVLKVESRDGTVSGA
- Method notes: Inhibition of human CYP3A4 using midazolam as substrate at 10 uM by cocktail inhibition assay
- Format: ADME
- Details: probe midazolam
Result type: inhibition at 10 µM (%)
The reply should be a number in %, with the unit left off.

Problem: Specify reported inhibition at 10 µM for the compound shown: COc1ccc2c(c1)CC(C(=O)Nc1cc(F)c(-c3cn[nH]c3)c(F)c1)CO2 (stereo unspecified)
Solution: 38
